target: TaqKK (Thermus aquaticus, UniProt P19821 1-832, E742K;A743K); assay: EMSA; 5 mM Mg2+; apparent Kd; EMSA: 3 nM DNA, 20 mM Tris-HCl pH 8.8, 10 mM NaCl, 5 mM MgCl2, 14 mM 2-mercaptoethanol, 0.1 mg/ml BSA, 5% glycerol, 40 C, 5 min; 1% agarose gel; settings: protein: recombinant; label: 32P on 27mer; primer-template; 27 bp duplex, 5' overhang 22 nt on the 49mer template
Sequence (P19821 whole entry E742K/A743K): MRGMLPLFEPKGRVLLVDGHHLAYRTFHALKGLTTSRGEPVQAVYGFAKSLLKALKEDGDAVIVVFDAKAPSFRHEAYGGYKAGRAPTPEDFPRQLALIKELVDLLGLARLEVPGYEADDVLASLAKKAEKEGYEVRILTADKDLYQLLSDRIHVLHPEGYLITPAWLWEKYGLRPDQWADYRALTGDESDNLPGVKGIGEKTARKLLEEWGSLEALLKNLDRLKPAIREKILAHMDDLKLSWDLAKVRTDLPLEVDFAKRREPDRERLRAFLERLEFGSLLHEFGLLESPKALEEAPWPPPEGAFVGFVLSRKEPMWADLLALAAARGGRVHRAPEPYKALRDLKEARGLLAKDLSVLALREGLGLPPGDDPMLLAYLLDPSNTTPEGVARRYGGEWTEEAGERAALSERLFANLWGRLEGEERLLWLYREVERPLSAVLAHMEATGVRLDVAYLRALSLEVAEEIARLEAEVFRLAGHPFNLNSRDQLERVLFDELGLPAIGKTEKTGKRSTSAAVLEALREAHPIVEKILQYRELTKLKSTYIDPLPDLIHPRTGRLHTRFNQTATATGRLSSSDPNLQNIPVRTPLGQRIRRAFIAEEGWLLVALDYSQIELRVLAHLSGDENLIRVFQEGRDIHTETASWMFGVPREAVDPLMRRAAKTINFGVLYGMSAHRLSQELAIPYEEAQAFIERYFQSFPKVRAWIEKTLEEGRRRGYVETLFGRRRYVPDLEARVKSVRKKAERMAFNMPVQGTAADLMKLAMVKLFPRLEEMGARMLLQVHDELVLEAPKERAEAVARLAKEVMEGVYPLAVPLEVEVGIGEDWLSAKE
metric-name: pKd
Please treat pKd as minus the base-10 logarithm of the molar concentration.

Look up and report measured pKd for this entry: primed DNA (27mer/49mer) (dsDNA) DNA 1: AGCTATGACCATGATTACGAATTGCTT DNA 2: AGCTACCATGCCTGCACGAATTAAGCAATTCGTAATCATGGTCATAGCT 8.00
